The values you see were collected from the array DNA melting data of Ke et al. (doi:10.1101/2024.01.08.574731).

- Assay notes: folding enthalpy; higher = less favourable; fluorescence melt of hairpins on a sequencing array, two-state fit
- Conditions used: sodium 0.088 M
Note that class boundaries on folding enthalpy are band A = under -30 kcal/mol, band B = from -30 kcal/mol up to -10 kcal/mol, band C = -10 kcal/mol and over

// bin(item) where item = GGTAACGAAAGTTTAACC ((((((....)))..)))
band B

Sort into band: GTAGAACCGAAAGGTTAC (((..(((....))))))
band B

###

- Assay notes: folding enthalpy; higher = less favourable; fluorescence melt of hairpins on a sequencing array, two-state fit
- Conditions used: sodium 0.088 M
Respond with true for folding enthalpy values of -30 kcal/mol and above, false for values below.

Sample answers from the record:
                             biosequence  assigned_label
0  GTACTGGCGAAAGCCTAC (((..(((....))))))            true
1  GCGGACGGAAACATCCGC (((((.(....).)))))           false
2  GATGGCGGAAACGCTATC (((.(((....))).)))            true
3      GATCTCTGAAGAGATC ((((((....))))))           false
4  GACCATGGAAACACGGTC ((((.((....)).))))           false
5  GCACAGCGAAAGCCTTGC (((..((....))..)))            true
6  GAGGCCCGAAAGGGTCTC (((.(((....))).)))           false

Below: the item to evaluate.
Has GCTGACGAAAGTCGAAGC ((((((....)))..))) a recorded folding enthalpy greater than or equal to -30 kcal/mol?
true
